experimental-target: rat GLP-1 receptor (rat) (UniProt P32301)
Sequence (P32301 22-463): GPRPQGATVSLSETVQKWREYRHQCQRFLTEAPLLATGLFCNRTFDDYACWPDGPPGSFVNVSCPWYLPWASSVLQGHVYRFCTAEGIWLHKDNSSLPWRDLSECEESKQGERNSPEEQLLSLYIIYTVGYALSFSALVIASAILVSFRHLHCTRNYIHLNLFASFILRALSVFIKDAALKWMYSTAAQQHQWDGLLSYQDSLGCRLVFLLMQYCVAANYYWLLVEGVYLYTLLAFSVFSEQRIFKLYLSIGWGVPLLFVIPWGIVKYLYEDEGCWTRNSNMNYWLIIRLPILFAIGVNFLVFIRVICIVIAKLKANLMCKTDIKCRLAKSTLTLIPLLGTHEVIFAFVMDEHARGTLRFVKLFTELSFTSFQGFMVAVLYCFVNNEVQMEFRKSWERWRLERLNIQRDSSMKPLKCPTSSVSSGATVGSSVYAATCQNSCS
test-method-notes: cell-based or functional assay
outcome-measure: cAMP EC50 (nM)

binder="IP348 (Fc fusion) YSEGTFTSDYSKLLERQAIDEFIASLLKGGGGGGGSGGGGSGGGGSGGGGSGGGGSGGGGSA" reported_measurement=0.037
binder="IP339 (Fc fusion) YSEGTFTSDYSKLLEKEAQRLFIEWLLAGGGGGGGSGGGGSGGGGSGGGGSGGGGSGGGGSA" reported_measurement=0.05
binder="IP413 (Fc fusion) YSEGTFTSDYSKLLEEEASRLFIEWLLAGGGGGGSGGGGSGGGGSGGGGSATHTCPPC" reported_measurement=0.048
